Entry source: the supplement of paper PMC6555819

test system: PPARg:RXRa 30nM:10nM, anti-RXR (NR concentration 30 nM, RXRa partner concentration 10 nM); experiment: PBM binding z-score (relative to random genomic background probes); higher = stronger binding; sequences stand for … in GC…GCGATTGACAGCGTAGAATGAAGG
// reported PBM binding z-score per item
Lab note: write the figure by itself, no unit.

Here are 5 sequences together with their reported answers.
CCTCGGAGGACTGAAGGTCAGAGCTGTCCGCTTT = -0.9
TAGCCTAGCTCATTGGGCCAGTATAGTACGCATC = -0.321
TAGCCTAGGTCATTGGGGCAGTATAGTACGCATC = 1.15
CCTATCAGTTGACCATAAGGGCAACCGAAGCTCG = -0.0186
TGAATGAGGGTATAAGATCAGGGAACGTTGCAAA = 1.11

[in] If you can, please state the reported PBM binding z-score value of ATCTCTAGGTAAGACTCACTTCAGTGAAGAACGC .
[out] 0.479

[in] If you can, please state the reported PBM binding z-score value of CCTAGCAGGCCAATCTGGGGCACTCAAGGCTTGA .
[out] -0.732

[in] If you can, please state the reported PBM binding z-score value of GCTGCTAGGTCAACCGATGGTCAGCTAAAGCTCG .
[out] 0.428

[in] If you can, please state the reported PBM binding z-score value of TAGCCTAGGTCATCGGCCAGTATACCACGCGAAC .
[out] 0.448

[in] If you can, please state the reported PBM binding z-score value of GCTGCTAGGTCAGGTTGGTCAGCAAACGGGTACG .
[out] -0.344

[in] If you can, please state the reported PBM binding z-score value of CGAATTAGGTCATTGACAGGACAGTGAATAGTAA .
[out] 3.62

[in] If you can, please state the reported PBM binding z-score value of CCGACTGGGGCATGGTTACCATAACGCACAGCCA .
[out] -0.195

[in] If you can, please state the reported PBM binding z-score value of GTACCAAGGTGAATAGGTCGTTGCTGAGTAGGCG .
[out] -0.00379

[in] If you can, please state the reported PBM binding z-score value of CAAACTAGGTCAAGGACAGTGAATCTCCGCACGC .
[out] 4.3

[in] If you can, please state the reported PBM binding z-score value of GCTTACGGGTCAAAGGTTATAGAATGAATAGAAT .
[out] 10.1

[in] If you can, please state the reported PBM binding z-score value of CCTACTGGGCCAAGGTCAGTGATCAGTCAAAGCA .
[out] 0.671

[in] If you can, please state the reported PBM binding z-score value of TCATATACGTAATACAGGTGAAAGTCGGCATCTA .
[out] 3.96
